- System: Bacillus subtilis
- assay-procedure: Antibacterial activity against Bacillus subtilis ATCC 6051 assessed as reduction in bacterial cell growth incubated for 24 hrs by two fold serial dilution
- Type: functional
- details: ATCC 6051, 24 h
MIC by entry:
Note: unit µg/mL is implicit; provide only the numeric part.

Answered cases to consult:
| compound | recorded-value |
| --- | --- |
| Cc1ccc(S(=O)(=NSC(F)(F)F)N2CCCC2)cc1 (configuration not stated) | 32 |
| O=S(=NSC(F)(F)F)(c1ccccc1)N1CCCC1 (configuration not stated) | 8 |
| O=S(=NSC(F)(F)F)(c1ccccc1)c1ccccc1 | 16 |

Quick note, MIC for CS(=O)(=NSC(F)(F)F)c1ccccc1 (configuration not stated) landed at 16
